Recorded pKd values for a group of binders are listed next.
Target: T1, human IFN-ω (human, UniProt P05000 24-195)
T1 construct: Recombinant, HEK293; also called interferon omega
Experiment: ProteOn SPR, cell supernatant;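 note: each binding measurement used just a single antigen concentration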
pKd: −log10 of the molar value.
Measurement Label: pKd

[[record]]
binder = "IFWM3377 (antibody, IgG1, V domains shown, mAb; IgG1/kappa said of the parent and of selected mAbs; also called IFWB3112) VH: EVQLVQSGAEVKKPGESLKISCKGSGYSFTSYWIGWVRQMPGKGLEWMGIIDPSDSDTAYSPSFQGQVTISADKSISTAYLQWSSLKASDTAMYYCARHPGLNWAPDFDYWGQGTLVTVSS VL: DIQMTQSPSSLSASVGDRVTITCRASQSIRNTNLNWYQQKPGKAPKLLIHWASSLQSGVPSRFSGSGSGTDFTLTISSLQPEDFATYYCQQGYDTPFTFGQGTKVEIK"
assay_result = 10.57

[[record]]
binder = "IFWM3386 (antibody, IgG1, V domains shown, mAb; IgG1/kappa said of the parent and of selected mAbs; also called IFWB3121) VH: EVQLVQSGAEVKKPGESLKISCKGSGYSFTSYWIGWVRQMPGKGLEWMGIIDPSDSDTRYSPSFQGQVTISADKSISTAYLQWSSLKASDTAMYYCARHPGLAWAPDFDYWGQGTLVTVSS VL: DIQMTQSPSSLSASVGDRVTITCRASQSIAEFLNWYQQKPGKAPKLLIYFASSLQSGVPSRFSGSGSGTDFTLTISSLQPEDFATYYCQQSIDFPLTFGQGTKVEIK"
assay_result = 10.59

[[record]]
binder = "IFWM3415 (antibody, IgG1, V domains shown, mAb; IgG1/kappa said of the parent and of selected mAbs; also called IFWB3150) VH: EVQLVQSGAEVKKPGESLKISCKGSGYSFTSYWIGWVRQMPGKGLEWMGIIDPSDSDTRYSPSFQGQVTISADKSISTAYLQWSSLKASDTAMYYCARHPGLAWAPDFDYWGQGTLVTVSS VL: DIQMTQSPSSLSASVGDRVTITCRASQSISNSNLNWYQQKPGKAPKLLIHWASSLQSGVPSRFSGSGSGTDFTLTISSLQPEDFATYYCQQWYDHPLTFGQGTKVEIK"
assay_result = 10.74

[[record]]
binder = "IFWM3293 (antibody, IgG1, V domains shown, mAb; IgG1/kappa said of the parent and of selected mAbs; also called IFWB3028) VH: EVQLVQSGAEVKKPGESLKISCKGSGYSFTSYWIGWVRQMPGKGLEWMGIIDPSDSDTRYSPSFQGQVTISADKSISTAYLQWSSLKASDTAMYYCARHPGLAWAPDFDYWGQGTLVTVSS VL: DIQMTQSPSSLSASVGDRVTITCRASQSIDEFLNWYQQKPGKAPKLLIYFASSLQSGVPSRFSGSGSGTDFTLTISSLQPEDFATYYCQQAHSFPLTFGQGTKVEIK"
assay_result = 10.54

[[record]]
binder = "IFWM3397 (antibody, IgG1, V domains shown, mAb; IgG1/kappa said of the parent and of selected mAbs; also called IFWB3132) VH: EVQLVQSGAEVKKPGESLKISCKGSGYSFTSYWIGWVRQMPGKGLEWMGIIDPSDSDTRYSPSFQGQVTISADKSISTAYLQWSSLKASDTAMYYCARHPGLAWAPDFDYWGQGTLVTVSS VL: DIQMTQSPSSLSASVGDRVTITCRASQSITGFLNWYQQKPGKAPKLLIYAASSLQSGVPSRFSGSGSGTDFTLTISSLQPEDFATYYCQQSHDFPLTFGQGTKVEIK"
assay_result = 10.60

[[record]]
binder = "IFWM3372 (antibody, IgG1, V domains shown, mAb; IgG1/kappa said of the parent and of selected mAbs; also called IFWB3107) VH: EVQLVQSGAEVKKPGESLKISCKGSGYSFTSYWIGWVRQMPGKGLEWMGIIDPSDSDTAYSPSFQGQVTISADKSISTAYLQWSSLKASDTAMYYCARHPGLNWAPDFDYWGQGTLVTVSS VL: DIQMTQSPSSLSASVGDRVTITCRASQSIDNNNLNWYQQKPGKAPKLLIYAASSLQSGVPSRFSGSGSGTDFTLTISSLQPEDFATYYCQQGYDWPLTFGQGTKVEIK"
assay_result = 10.31

[[record]]
binder = "IFWM3398 (antibody, IgG1, V domains shown, mAb; IgG1/kappa said of the parent and of selected mAbs; also called IFWB3133) VH: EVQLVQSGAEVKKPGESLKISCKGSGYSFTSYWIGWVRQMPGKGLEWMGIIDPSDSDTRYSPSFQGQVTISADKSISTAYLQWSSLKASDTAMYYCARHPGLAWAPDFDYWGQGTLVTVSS VL: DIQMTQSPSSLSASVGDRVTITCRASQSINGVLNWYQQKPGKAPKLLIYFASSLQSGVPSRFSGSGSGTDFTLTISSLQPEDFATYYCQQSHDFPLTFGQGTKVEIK"
assay_result = 10.59

[[record]]
binder = "IFWM3406 (antibody, IgG1, V domains shown, mAb; IgG1/kappa said of the parent and of selected mAbs; also called IFWB3141) VH: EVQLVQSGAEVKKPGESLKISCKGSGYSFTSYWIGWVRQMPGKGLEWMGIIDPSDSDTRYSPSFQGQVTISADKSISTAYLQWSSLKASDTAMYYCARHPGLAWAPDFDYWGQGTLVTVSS VL: DIQMTQSPSSLSASVGDRVTITCRASQSINNLNWYQQKPGKAPKLLIYWASSLQSGVPSRFSGSGSGTDFTLTISSLQPEDFATYYCQQGYDTPFTFGQGTKVEIK"
assay_result = 10.11

[[record]]
binder = "IFWM3390 (antibody, IgG1, V domains shown, mAb; IgG1/kappa said of the parent and of selected mAbs; also called IFWB3125) VH: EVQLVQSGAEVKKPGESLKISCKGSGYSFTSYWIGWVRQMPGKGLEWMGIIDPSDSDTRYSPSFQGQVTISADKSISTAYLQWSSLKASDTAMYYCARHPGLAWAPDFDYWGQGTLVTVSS VL: DIQMTQSPSSLSASVGDRVTITCRASQSIDGALNWYQQKPGKAPKLLIYFASSLQSGVPSRFSGSGSGTDFTLTISSLQPEDFATYYCQQSFDFPLTFGQGTKVEIK"
assay_result = 11.00

[[record]]
binder = "IFWM3378 (antibody, IgG1, V domains shown, mAb; IgG1/kappa said of the parent and of selected mAbs; also called IFWB3113) VH: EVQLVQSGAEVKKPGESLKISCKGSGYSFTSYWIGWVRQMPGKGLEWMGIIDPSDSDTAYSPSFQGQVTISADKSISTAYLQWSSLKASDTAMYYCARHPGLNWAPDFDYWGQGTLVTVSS VL: DIQMTQSPSSLSASVGDRVTITCRASQSIANNDLNWYQQKPGKAPKLLIHWASSLQSGVPSRFSGSGSGTDFTLTISSLQPEDFATYYCQQDYDWPLTFGQGTKVEIK"
assay_result = 10.12

